B1: scFv; the commonest letter at each place (parent)
chain 1: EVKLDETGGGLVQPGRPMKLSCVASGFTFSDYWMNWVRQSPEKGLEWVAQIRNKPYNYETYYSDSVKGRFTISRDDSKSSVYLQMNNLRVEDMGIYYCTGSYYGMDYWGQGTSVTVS
chain 2: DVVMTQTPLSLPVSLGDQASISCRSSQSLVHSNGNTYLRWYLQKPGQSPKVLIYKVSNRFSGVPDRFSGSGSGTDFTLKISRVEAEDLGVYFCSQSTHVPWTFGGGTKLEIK

Variants of: B1
Experiment: yeast surface expression (ratio to wild type); higher = more expressed
Conditions: format: scFv 4-4-20, heavy + light
measured_attribute: yeast surface expression

| mutation_code | measured_attribute | value_reported |
| --- | --- | --- |
| chain 1 M105R W108A | yeast surface expression | 0.498 |
| chain 1 G104L G109K | yeast surface expression | 0.179 |
| chain 1 G100Y G109W | yeast surface expression | 0.26 |

Field yeast surface expression (entry chain 1 T28F N35C ) reads 0.644

Field yeast surface expression (entry chain 1 S30E N35E ) reads 0.894

Cited source: the FLAb antibody collection (doi:10.7554/elife.23156)
